Taken from PubChem BioAssay AID1259407.

Tested on: CCRIS mutagenicity, Ames/micronucleus/aberration tests
protocol: CCRIS mutagenicity studies
assayConditions: Test System: AMES SALMONELLA TYPHIMURIUM; Strain/Indicator: TA100; Metabolic Activation: HAMSTER, LIVER, S-9, AROCLOR 1254; Method: PREINCUBATION
Description: The CCRIS database contains chemical records with carcinogenicity, mutagenicity, tumor promotion, and tumor inhibition test results. It was developed by the National Cancer Institute (NCI). Data are derived from studies cited in primary journals, current awareness tools, NCI reports, and other sources. Test results have been reviewed by experts in carcinogenesis and mutagenesis. CCRIS provides historical information from the years 1985 - 2011. It is no longer updated. […]
Activity calls are given as the source filed them. The rule behind the calls is not given here.

{"columns": ["testSmiles", "mutagenic call"],
 "data": [
  ["CC1=CC[C@H]2C(C)=CC[C@@H](C(C)C)[C@@H]2C1", "inactive; negative"],
  ["CCCCOC(=O)c1ccc(N)cc1", "inactive; negative"]
]}

----------
Tested on: CCRIS mutagenicity, Ames/micronucleus/aberration tests
protocol: CCRIS mutagenicity studies
assayConditions: Test System: AMES SALMONELLA TYPHIMURIUM; Strain/Indicator: TA100; Metabolic Activation: NONE; Method: PREINCUBATION
Activity calls are given as the source filed them. No rule for the calls is given here.
Entry note: the call must match one of 1 (active), 0 (inactive)

Answered cases to consult:
{"columns": ["molecule", "labelClass"],
 "data": [
  ["C1CNCCN1", 0],
  ["O=C1OC(=O)c2c(Cl)c(Cl)c(Cl)c(Cl)c21", 0],
  ["Nc1ccc(NCCO)c([N+](=O)[O-])c1", 1],
  ["C=CC(=O)OCCCCCC", 0],
  ["O=P(OCCCl)(OCCCl)OCCCl", 0],
  ["CCCCN", 0]
]}

Input line: What classification did `Cc1cccc2nc3c(ccc4ccccc43)cc12` end up with in this test?
Output line: 0

Input line: What classification did Cc1c(F)c(N2CCNC(C)C2)cc2c1c(=O)c(C(=O)O)cn2C1CC1 (configuration not stated) end up with in this test?
Output line: 0

Input line: What classification did CCCCC(CC)CNCC(CC)CCCC (configuration not stated) end up with in this test?
Output line: 0

Input line: What classification did `CCN` end up with in this test?
Output line: 0

Input line: What classification did CCCCCN(CCCOC)C(=O)C(CCC(=O)O)NC(=O)c1ccc(Cl)c(Cl)c1 (configuration not stated) end up with in this test?
Output line: 0

Input line: What classification did `Cc1cccc(N)c1C` end up with in this test?
Output line: 0

----------
System: CCRIS mutagenicity, Ames/micronucleus/aberration tests
protocol: CCRIS mutagenicity studies
assayConditions: Test System: AMES SALMONELLA TYPHIMURIUM; Strain/Indicator: TA97; Metabolic Activation: RAT, LIVER, S-9, AROCLOR 1254; Method: STANDARD PLATE
Active and inactive are the calls of the source. No rule for the calls is given here.
Entry note: the call must match one of active, inactive

Answered cases to consult:
{"columns": ["molecule", "labelClass"],
 "data": [
  ["CC(=O)Nc1ccc(OC(=O)c2ccccc2OC(C)=O)cc1", "inactive"],
  ["COC1=CC(=O)c2nc(C)c3c([nH]c4ccccc43)c2C1=O", "active"],
  ["Nc1ccccc1", "inactive"],
  ["Cc1cc(Cl)ccc1OCC(=O)O", "inactive"]
]}

Alright, here's another molecule for you.
Input line: What classification did CCC(CCC(C)=O)COC(=O)CCCCC(=O)O (stereo not given) end up with in this test?
Output line: inactive

----------
System: CCRIS mutagenicity, Ames/micronucleus/aberration tests
protocol: CCRIS mutagenicity studies
assayConditions: Test System: AMES SALMONELLA TYPHIMURIUM; Strain/Indicator: TA98; Metabolic Activation: RAT, LIVER, S-9, 3-METHYLCHOLANTHRENE; Method: STANDARD PLATE
Active and inactive are the calls of the source. How the calls were made is not given here.
Entry note: the call must match one of True = active, False = inactive

Answered cases to consult:
{"columns": ["molecule", "labelClass"],
 "data": [
  ["Cn1c2ccccc2c(=O)c2c(O)cc3c(c21)CC(C1(C)CO1)O3 (centres undefined)", "True"],
  ["C=C(C)C1Cc2c(cc(O)c3c(=O)c4ccccc4n(C)c23)O1 (centres undefined)", "True"],
  ["Oc1cccc2c1ccc1[nH]c3ccc4ccccc4c3c12", "True"]
]}

Input line: What classification did `O=C(O)c1ccc([N+](=O)[O-])o1` end up with in this test?
Output line: False

----------
Tested on: CCRIS mutagenicity, Ames/micronucleus/aberration tests
protocol: CCRIS mutagenicity studies
assayConditions: Test System: AMES SALMONELLA TYPHIMURIUM; Strain/Indicator: TA1535; Metabolic Activation: NONE; Method: PREINCUBATION
The source made the active and inactive calls. No rule for the calls is given here.
Entry note: the call must match one of active, inactive

{"columns": ["compound", "labelClass"],
 "data": [
  ["CN=[N+](C)[O-]", "inactive"],
  ["ClC(Cl)=C(Cl)Cl", "inactive"],
  ["CC(C)COC(=O)c1ccccc1N", "inactive"],
  ["CCn1cc(C(=O)O)c(=O)c2ccc(C)nc21", "inactive"],
  ["Cc1ccc(N)cc1O", "inactive"]
]}

Input line: What classification did `OCc1ccccc1` end up with in this test?
Output line: inactive

Input line: What classification did `OCC(CO)(CBr)CBr` end up with in this test?
Output line: inactive

Input line: What classification did `O=c1[nH]c(=O)n([C@H]2C[C@H](O)[C@@H](CO)O2)cc1/C=C/Br` end up with in this test?
Output line: inactive

Input line: What classification did CCCC(C)(COC(N)=O)COC(=O)NC(C)C (stereo not given) end up with in this test?
Output line: inactive

Input line: What classification did `CCOc1ccccc1[N+](=O)[O-]` end up with in this test?
Output line: active

----------
Tested on: CCRIS mutagenicity, Ames/micronucleus/aberration tests
protocol: CCRIS mutagenicity studies
assayConditions: Test System: AMES SALMONELLA TYPHIMURIUM; Strain/Indicator: TA98; Metabolic Activation: NONE; Method: PREINCUBATION
Active and inactive are the calls of the source. The rule behind the calls is not given here.
Entry note: the call must match one of t (active), f (inactive)

Answered cases to consult:
{"columns": ["compound", "labelClass"],
 "data": [
  ["Oc1ccccc1", "f"],
  ["O=[N+]([O-])c1ccccc1CBr", "f"],
  ["CCOC(=O)CC(C)=O", "f"],
  ["CCC(C)COC(=O)/C=C/c1ccc(N=Cc2ccc(OC)cc2)cc1 (stereo not given)", "f"],
  ["C=CCNC(N)=S", "f"]
]}

Alright, here's another compound for you.
Input line: What classification did `CC1(C)COC1=O` end up with in this test?
Output line: f

----------
Tested on: CCRIS mutagenicity, Ames/micronucleus/aberration tests
protocol: CCRIS mutagenicity studies
assayConditions: Test System: AMES SALMONELLA TYPHIMURIUM; Strain/Indicator: TA98; Metabolic Activation: NONE; Method: STANDARD PLATE
Activity calls are given as the source filed them. The rule behind the calls is not given here.
measurementLabel: mutagenic call

// solved cases for mutagenic call follow
{"columns": ["molecule", "mutagenic call"],
 "data": [
  ["CCOc1ccc(NC(C)=O)cc1", "inactive; negative"],
  ["CN1Cc2c(N)cccc2C(c2ccccc2)C1 (stereo not given)", "inactive; negative"],
  ["NC(=O)N/N=C/C(=O)O", "inactive; negative"],
  ["O=[N+]([O-])c1ccc(-c2nc(NCCO)c3ccccc3n2)s1", "active; positive"],
  ["CCOc1cc(N=Nc2ccc(N(CCO)CCO)cc2)ccc1N=Nc1c(S(=O)(=O)O)cc2ccc(N)cc2c1O", "inactive; negative"]
]}

Can you give me mutagenic call for all of these, one by one?
1. C1=CC2OC2C=CO1 (stereo not given)
2. CC(=O)c1cc2c(cc1C)C(C)(C)C(C)C2(C)C (stereo not given)
3. CCC1(CC(=O)O)OCCc2c1[nH]c1c(C(C)O)cccc21 (stereo not given)

Output line:
["inactive; negative", "inactive; negative", "inactive; negative"]

----------
Test system: CCRIS mutagenicity, Ames/micronucleus/aberration tests
protocol: CCRIS mutagenicity studies
assayConditions: Test System: AMES SALMONELLA TYPHIMURIUM; Strain/Indicator: TA100; Metabolic Activation: RAT LIVER S-9, AROCLOR 1254; Method: PREINCUBATION
Source text: The CCRIS database contains chemical records with carcinogenicity, mutagenicity, tumor promotion, and tumor inhibition test results. It was developed by the National Cancer Institute (NCI). Data are derived from studies cited in primary journals, current awareness tools, NCI reports, and other sources. Test results have been reviewed by experts in carcinogenesis and mutagenesis. CCRIS provides historical information from the years 1985 - 2011. It is no longer updated. […]
Calls of active or inactive are those of the source. No rule for the calls is given here.
Entry note: the call must match one of 1 (yes) for active, 0 (no) for inactive

{"columns": ["testSmiles", "labelClass"],
 "data": [
  ["O=Cc1ccccc1", "0 (no)"]
]}

Input line: What classification did `O=C/C=C/c1ccccc1` end up with in this test?
Output line: 0 (no)

Input line: What classification did `COc1cc(CNC(=O)CCCC/C=C/C(C)C)ccc1O` end up with in this test?
Output line: 0 (no)

Input line: What classification did `C=O` end up with in this test?
Output line: 1 (yes)
